Let's go through some pIC50 measurements on PARP1 (Homo sapiens, UniProt P09874) together.
Sequence (P09874 whole entry): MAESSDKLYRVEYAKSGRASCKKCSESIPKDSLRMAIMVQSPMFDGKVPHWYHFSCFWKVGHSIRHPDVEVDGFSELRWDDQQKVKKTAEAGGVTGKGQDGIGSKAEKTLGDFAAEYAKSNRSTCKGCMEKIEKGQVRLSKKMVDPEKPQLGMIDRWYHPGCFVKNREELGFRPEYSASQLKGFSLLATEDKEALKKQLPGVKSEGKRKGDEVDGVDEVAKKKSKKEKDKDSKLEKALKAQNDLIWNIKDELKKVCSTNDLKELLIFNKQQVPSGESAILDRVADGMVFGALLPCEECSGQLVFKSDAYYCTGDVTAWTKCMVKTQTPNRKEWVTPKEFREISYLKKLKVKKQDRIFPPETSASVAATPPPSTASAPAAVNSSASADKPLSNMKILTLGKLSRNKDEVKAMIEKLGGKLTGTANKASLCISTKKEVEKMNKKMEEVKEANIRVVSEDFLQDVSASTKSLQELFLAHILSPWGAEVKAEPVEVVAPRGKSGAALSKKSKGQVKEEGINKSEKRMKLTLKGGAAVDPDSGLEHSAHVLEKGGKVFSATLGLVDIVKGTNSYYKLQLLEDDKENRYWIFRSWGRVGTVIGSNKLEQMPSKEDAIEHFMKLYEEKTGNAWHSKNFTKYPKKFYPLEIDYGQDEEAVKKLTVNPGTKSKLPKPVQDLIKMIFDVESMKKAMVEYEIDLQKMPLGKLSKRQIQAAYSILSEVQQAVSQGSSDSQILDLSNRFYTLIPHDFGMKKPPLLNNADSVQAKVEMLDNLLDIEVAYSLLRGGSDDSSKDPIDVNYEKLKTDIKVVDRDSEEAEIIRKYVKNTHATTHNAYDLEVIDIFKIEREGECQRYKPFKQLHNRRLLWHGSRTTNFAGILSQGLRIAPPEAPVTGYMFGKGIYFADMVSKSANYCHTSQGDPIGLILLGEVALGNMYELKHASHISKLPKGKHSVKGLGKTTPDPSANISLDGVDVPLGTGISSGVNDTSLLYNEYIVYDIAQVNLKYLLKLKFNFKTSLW
pIC50: −log10 of the molar value.

Some compounds with recorded pIC50:
compound=Cc1ccc(N2CCN([C@H]3C=C(c4nc5c(c(=O)[nH]4)CC4(CC5)CC4)CC3)CC2)c(F)c1 result="6.30 to 9.00"
compound=CNC(=O)c1ccc(N2CCN([C@H]3C=C(c4nc5c(c(=O)[nH]4)CC4(CC5)CC4)CC3)CC2)nc1 result="6.30 to 9.00"
compound=Cc1cc(F)ccc1N1CCN([C@H]2C=C(c3nc4c(c(=O)[nH]3)CC3(CC4)CC3)CC2)CC1 result="6.30 to 9.00"
compound=O=c1[nH]c(C2=C[C@H](N3CCN(c4ccccc4Cl)CC3)CC2)nc2c1CC1(CC2)CC1 result="6.30 to 9.00"
compound="O=c1[nH]c(CCCN2CCN(c3ccccc3)CC2)nc2c1CC1CC1C2 (stereo not drawn)" result="5.30 to 6.30"
compound="CC1CN(c2ccc(F)cc2)CC(C)N1CCCc1nc2c(c(=O)[nH]1)CC1(CC2)CC1 (stereo not drawn)" result="3.30 to 5.30"

Field: pIC50. Fill in for each record below.
1. O=c1[nH]c(C2=C[C@H](N3CCN(c4cc(F)cc(Cl)c4)CC3)CC2)nc2c1CC1(CC2)CC1
2. Cc1cc(N2CCN([C@H]3C=C(c4nc5c(c(=O)[nH]4)CC4(CC5)CC4)CC3)CC2)ncc1Cl
3. O=c1[nH]c(C2=C[C@H](N3CCN(c4ncccn4)CC3)CC2)nc2c1CC1(CC2)CC1

1: 5.30 to 6.30; 2: 6.30 to 9.00; 3: 3.30 to 5.30

---

- TARGET_OF_ASSAY: PARP1 (Homo sapiens)
pIC50: −log10 of the molar value.
Record form. Attribute: pIC50. Fill in for each entry.

compound=O=c1[nH]c(C2=C[C@H](N3CCN(c4ccc(-c5ccccc5)nc4)CC3)CC2)nc2c1CC1(CC2)CC1 target_of_assay="PARP1 (Homo sapiens)" result="5.30 to 6.30"
compound=Cc1ccc(C2CCN([C@H]3C=C(c4nc5c(c(=O)[nH]4)CC4(CC5)CC4)CC3)CC2)cc1 target_of_assay="PARP1 (Homo sapiens)" result="6.30 to 9.00"
compound=CNC(=O)c1csc(N2CCN([C@H]3C=C(c4nc5c(c(=O)[nH]4)CC4(CC5)CC4)CC3)CC2)n1 target_of_assay="PARP1 (Homo sapiens)" result="5.30 to 6.30"

Field: pIC50. Fill in for each record below.
1. O=c1[nH]c(C2=C[C@H](N3CC=C(c4ccc(Cl)cc4)CC3)CC2)nc2c1CC1(CC2)CC1
2. O=c1[nH]c(C2=C[C@H](N3CCN(c4cc(F)cc(F)c4)CC3)CC2)nc2c1CC1(CC2)CC1
3. O=c1[nH]c(CCCN2CCN(c3ccc(F)cc3)CC2)nc2c1CC1CC1C2 (stereo not shown)
4. O=c1[nH]c(C2=C[C@H](N3CCN(c4cc(F)ccc4F)CC3)CC2)nc2c1CC1(CC2)CC1

1. 6.30 to 9.00
2. 6.30 to 9.00
3. 6.30 to 9.00
4. 6.30 to 9.00

---

pIC50: −log10 of the molar value.
Let's go through some pIC50 measurements on UniProt:P09874 together.

Some compounds with recorded pIC50:
compound=O=c1[nH]c(C2=C[C@H](N3CCN(c4nccs4)CC3)CC2)nc2c1CC1(CC2)CC1 result="6.30 to 9.00"
compound=O=c1[nH]c(CCCN2CCN(c3ccccc3Cl)CC2)nc2c1CC1(CC2)CC1 result="6.30 to 9.00"
compound=Cc1csc(N2CCN([C@H]3C=C(c4nc5c(c(=O)[nH]4)CC4(CC5)CC4)CC3)CC2)n1 result="5.30 to 6.30"

Field: pIC50. Fill in for each record below.
1. O=c1[nH]c(C2=C[C@H](N3CCN(c4ccc(F)c(F)c4)CC3)CC2)nc2c1CC1(CC2)CC1
2. O=c1[nH]c(C2=C[C@H](N3CCN(c4ccc(Cl)cc4)CC3)CC2)nc2c1CCCC21CC1
3. O=c1[nH]c(CCCN2CC=C(c3ccc(F)cc3)CC2)nc2c1CC1(CC2)CC1
4. O=c1[nH]c(C2=C[C@H](N3CCN(c4cncc(F)c4)CC3)CC2)nc2c1CC1(CC2)CC1
5. CNC(=O)c1cccnc1N1CCN([C@H]2C=C(c3nc4c(c(=O)[nH]3)CC3(CC4)CC3)CC2)CC1
6. O=c1[nH]c(C2=C[C@H](N3CCN(c4ccc(Cl)cc4F)CC3)CC2)nc2c1CC1(CC2)CC1
7. CC(C)(CCc1nc2c(c(=O)[nH]1)CC1(CC2)CC1)N1CCN(c2ccc(F)cc2)CC1
8. O=c1[nH]c(C2=C[C@H](N3CCN(c4cccc(F)c4Cl)CC3)CC2)nc2c1CC1(CC2)CC1

["6.30 to 9.00", "3.30 to 5.30", "6.30 to 9.00", "6.30 to 9.00", "5.30 to 6.30", "6.30 to 9.00", "6.30 to 9.00", "6.30 to 9.00"]

---

- TARGET_OF_ASSAY: PARP1 (Homo sapiens, UniProt P09874)
- Construct: purchased BPS Bioscience
- PROTOCOL_TEXT: PARP1 Biochemical Assay (BPS Bioscience kit, chemiluminescence)
- EXPERIMENTAL_PARAMETERS: histone-coated plate, biotinilated NAD+, 25° C. for 60 min, luminescence, read-out: PARP 1 inhibition IC50
pIC50: −log10 of the molar value.
READOUT_NAME: pIC50

Some molecules with recorded pIC50:
molecule="Cc1ccc(N2CCN([C@H]3C=C(c4nc5c(c(=O)[nH]4)CC4(CC5)CC4)CC3)CC2)cc1F [Compound 84]" readout_name=pIC50 result="6.30 to 9.00"
molecule="O=c1[nH]c(C2=C[C@H](N3CCN(c4ccc(F)cc4)CC3)CC2)nc2c1CC1(CC2)CC1 [Compound 42]" readout_name=pIC50 result="6.30 to 9.00"
molecule="O=c1[nH]c([C@@H]2CC[C@@H](N3CCN(c4cccc(F)c4)CC3)C2)nc2c1CC1(CC2)CC1 [Compound 156]" readout_name=pIC50 result="3.30 to 5.30"

Moving on to the next molecule.
// pIC50 value for CNC(=O)c1ccc(N2CCN([C@H]3C=C(c4nc5c(c(=O)[nH]4)CC4(CC5)CC4)CC3)CC2)cc1F [Compound 89] : 6.30 to 9.00

---

Let's go through some pIC50 measurements on PARP1 (Homo sapiens, UniProt P09874) together.
pIC50: −log10 of the molar value.

compound=Cc1ccccc1N1CCN([C@H]2C=C(c3nc4c(c(=O)[nH]3)CC3(CC4)CC3)CC2)CC1 target_of_assay="PARP1 (Homo sapiens, UniProt P09874)" result="6.30 to 9.00"

Field: pIC50. Fill in for each record below.
1. O=c1[nH]c(C2=C[C@H](N3CCN(c4ccc(Cl)cc4)CC3)CC2)nc2c1CC1(CC2)CC1
2. Cc1cccc(N2CCN(CCCc3nc4c(c(=O)[nH]3)CC3(CC4)CC3)CC2)c1
3. O=c1[nH]c([C@@H]2CC[C@H](N3CCN(c4ccc(Cl)cc4)CC3)C2)nc2c1CC1(CC2)CC1
4. O=c1[nH]c(C2=C[C@H](N3CCN(c4c(F)cccc4Cl)CC3)CC2)nc2c1CC1(CC2)CC1
5. O=c1[nH]c([C@@H]2CC[C@H](N3CCN(c4ccc(F)cc4)CC3)C2)nc2c1CC1(CC2)CC1
6. O=c1[nH]c(CCCN2CC=C(c3ccc(F)cc3)CC2)nc2c1CCC1(CC1)C2
7. Cc1ccc(N2CCN([C@H]3C=C(c4nc5c(c(=O)[nH]4)CC4(CC5)CC4)CC3)CC2)c(Cl)c1

1: 6.30 to 9.00; 2: 3.30 to 5.30; 3: 5.30 to 6.30; 4: 3.30 to 5.30; 5: 6.30 to 9.00; 6: 3.30 to 5.30; 7: 6.30 to 9.00

Field: pIC50. Fill in for each record below.
1. O=c1[nH]c(C2=C[C@@H](N3CCN(c4ccc(Cl)cc4)CC3)CC2)nc2c1CCCC21CC1
2. O=c1[nH]c(CCCN2CC3CC2CN3c2ccc(F)cc2)nc2c1CC1(CC2)CC1 (stereo not shown)
3. COc1cc(N2CCN([C@H]3C=C(c4nc5c(c(=O)[nH]4)CC4(CC5)CC4)CC3)CC2)ccc1F
4. O=c1[nH]c([C@@H]2CC[C@H](N3CCN(c4cccc(F)c4)CC3)C2)nc2c1CC1(CC2)CC1
5. O=c1[nH]c(CCCN2CCN(c3cccc(Cl)c3)CC2)nc2c1CC1(CC2)CC1
6. CNC(=O)c1ccnc(N2CCN([C@H]3C=C(c4nc5c(c(=O)[nH]4)CC4(CC5)CC4)CC3)CC2)c1
7. O=C1CN([C@H]2C=C(c3nc4c(c(=O)[nH]3)CC3(CC4)CC3)CC2)CCN1c1ccc(F)cc1
8. CC(C)(/C=C/c1nc2c(c(=O)[nH]1)CC1(CC2)CC1)N1CCN(c2ccc(F)cc2)CC1

6.30 to 9.00
5.30 to 6.30
6.30 to 9.00
3.30 to 5.30
3.30 to 5.30
5.30 to 6.30
3.30 to 5.30
3.30 to 5.30

Field: pIC50. Fill in for each record below.
1. O=c1[nH]c(C2=C[C@H](N3CCN(c4ccc(-c5ccsc5)cc4)CC3)CC2)nc2c1CC1(CC2)CC1
2. O=c1[nH]c(C2=C[C@H](N3CCN(c4ccc(Cl)c(Cl)c4)CC3)CC2)nc2c1CC1(CC2)CC1
3. Cc1ccnc(N2CCN([C@H]3C=C(c4nc5c(c(=O)[nH]4)CC4(CC5)CC4)CC3)CC2)c1

1: 5.30 to 6.30; 2: 3.30 to 5.30; 3: 6.30 to 9.00
